Origin of the recorded values: patent US8114406B2

Test system: MDA-MB-435 breast carcinoma cells
EXPERIMENTAL DETAILS: Inhibition of MDA-MB-435 cell adhesion to immobilized peptide 678 (microscopic adhesion assay)
Format: cell-based, human
ASSAY SETUP: microscopic adhesion assay; polystyrene coated with 5 μM peptide 678; peptides in solution; read-out: Inhibition of peptide 678 (IC50)
Where no end group is shown, it is not given here.
IC50 reference

IC50 reported for this sequence VLQNVRFVF [Peptide 688] : > 100 µM

Recorded result, FQGVLQNVQFVF [Peptide 703] , IC50: > 100 µM

Lab book: IC50 of TPGQVRTLWHDP [Peptide 701] noted as > 300 µM

Entry FQGVLQAVRFVF [Peptide 686] — recorded IC50 = > 300 µM

Continuing:
Measured IC50, FQGVLQNARFVF [Peptide 691] : > 300 µM
